Tested on: MALME-3M melanoma
Experiment: NCI tumour cell line growth inhibition, 48 h
quantity: TGI

Answered examples (3):
> print(dat)
                                   compound   reading
1  Cc1cc2c3ccccc3n(C)c2c2c1C(=O)c1ccccc1C2=O   35.4 µM
2  COC(=O)N1CC[C@@H]2CCC=C(c3cccc4c3OCO4)[C@@H]21  > 100 µM
3  OC(c1cc(C(O)(C(F)(F)F)C(F)(F)F)ncn1)(C(F)(F)F)C(F)(F)F   > 10 µM

For every record below, what is its TGI?
1. Cc1ccc(-n2c3c(c4c(CN5CCCCC5)c(O)ccc42)CCc2ccccc2C3=O)cc1
2. O=C(Oc1cccnc1)c1ccccc1Nc1ccnc(C(F)(F)F)c1
3. Nc1nc(N)c2cc(CNc3ccc(Cl)c(Cl)c3)ccc2n1
4. CCCCCCN(CCCCCC)CCCNc1nccc2ccccc12
5. COc1ccc2nc(-c3ccc(OC(=O)N(C)C)cc3)cn2c1
6. CSC1=Nc2c(c(C)c(-c3ccccc3)n2COC(CO)CO)C2=NC(=O)C(C)N12 (stereo not drawn)
7. O=C(N[C@H](c1ccc(Cl)c(Cl)c1)C1CNC1)c1ccc2cnccc2c1
8. NC(=S)N/N=C(/CC(=O)c1ccc([N+](=O)[O-])cc1)C(=O)Nc1ncc([N+](=O)[O-])s1

1. > 100 µM
2. > 100 µM
3. 2.77 µM
4. 3.91 µM
5. > 100 µM
6. > 100 µM
7. 14.6 µM
8. > 100 µM

For every record below, what is its TGI?
1. O=C(CC(=O)N1N=C(n2ccc3ccccc32)CC1c1ccccc1)Nc1cccc(Cl)c1 (stereo not drawn)
2. ON=C1CCCCC(=NO)CCCC1
3. COc1ccc(/C=C2\N=C(c3ccccc3)OC2=O)c(OCc2ccccc2)c1
4. COC(=O)C12CCC(C(=O)OC)(Cc3c(c4ccccc4n3S(=O)(=O)c3ccccc3)C1)C2=O (stereo not drawn)
5. C=CCn1c2ccccc2c2c(C)c3cnccc3c(C)c21
6. CC(C)(C)OC(=O)N1C(C2=COc3ccccc3O2)=COc2ccccc21
7. CN(C)c1cccc(-c2cc(=O)c3ccccc3[nH]2)c1
8. COc1ccc(/C=C/C(=O)c2sc(N)nc2C)cc1

["> 100 µM", "> 100 µM", "> 100 µM", "> 100 µM", "62 µM", "58.1 µM", "> 100 µM", "> 100 µM"]

---

Tested on: OVCAR-3 ovarian
Select the correct class. Options are active, inactive and nothing else.

Examples with answers:
> print(dat)
                                   compound  label.class
1           O=C(Nc1cccc(Cl)c1)Nc1cccc(Cl)c1     inactive
2  C=CCN1C(=O)/C(=c2\sc3n(c2=O)C2C(NN=3)N(CC)C(=O)N2CC)c2ccccc21 (centres undefined)       active
3  COc1cc(CNC(=O)/C=C/C=C/c2ccc3c(c2)OCO3)ccc1OCc1cn(-c2ccc(Cl)c(Cl)c2)nn1     inactive

// switching to the query compound
So what was the verdict on O=C1NC(=NCC(CO)c2ccccc2)S/C1=C\c1ccc2ncccc2c1 (centres undefined) in this test?
inactive

---

Test system: UACC-257 melanoma
Test: NCI tumour cell line growth inhibition, 48 h
Binary call on TGI: Met from 8 µM upward, Not met beneath that.

Examples with answers:
molecule	system	label.class
O=C1C=C2S[C@H]3C[C@]2(C=C1Br)c1c(c(O)c2c4c1=NCCC=4C=N2)N3	UACC-257 melanoma	Not met
COc1cc2c(cc1OCCCCNC(=O)c1cc3ccccc3[nH]1)N=CC1CCCN1C2=O (stereo not drawn)	UACC-257 melanoma	Met
CSc1ccc2c(c1)c(CCN)c(C)n2Cc1ccc(Cl)c(Cl)c1	UACC-257 melanoma	Not met
Cc1cccc(CN(C)c2ccc(CO)c(Cl)c2)c1	UACC-257 melanoma	Not met
COc1ccc(C2CCc3nc4nc(N)nc(N)c4cc3C2)cc1 (stereo not drawn)	UACC-257 melanoma	Met

Please indicate if the recorded TGI for c1ccc(Cc2cccc3cc(-c4ccc(-c5ccccc5)cc4)[nH]c23)cc1 meets or exceeds 8 µM.
Met

Please indicate if the recorded TGI for C=C1c2nc3ccccc3n2C=C(c2ccc(Cl)cc2)N1c1ccc(OCCN2CCOCC2)cc1 meets or exceeds 8 µM.
Met

Please indicate if the recorded TGI for CCCCCCCCCc1cc(O)c(O)cc1CCCCCCCCC meets or exceeds 8 µM.
Met

---

Tested on: HOP-62 NSCLC
Assay: NCI tumour cell line growth inhibition, 48 h
Could you please report measured TGI for the items listed next?
Give bare numbers, in µM.

For every record below, what is its TGI?
1. COc1cc(CNC(=O)/C=C/C=C/c2ccc3c(c2)OCO3)ccc1OCc1cn(-c2ccc(Cl)c(Cl)c2)nn1
2. O=C(N=Nc1ccc([N+](=O)[O-])cc1)NNc1ccc([N+](=O)[O-])cc1

[3.86, 34]

---

Could you please report measured TGI for the items listed next?
Test system: HOP-62 NSCLC
Assay: NCI tumour cell line growth inhibition, 48 h

Answered examples (4):
> print(dat)
                                   compound  quantity   reading
1   CN(C)CCNC(=O)c1cccc2nc3ccc4ccccc4c3nc12       TGI  0.352 µM
2  O=C(O)CC(NC(=O)C(F)(F)F)C(=O)NC1Cc2ccccc2OC1=O (stereo unspecified)       TGI  > 100 µM
3  O=C1CCc2c3c(c4c([nH]c5ccccc54)c2CC1)C(=O)NC3=O       TGI  > 100 µM
4                CCCNc1nc(N(C)O)nc(N(C)O)n1       TGI   97.6 µM

For every record below, what is its TGI?
1. Fc1ccc(-c2nc(-c3nc4ccc(Cl)cc4[nH]3)cc3c2[nH]c2ccccc23)cc1
2. CCCOc1ccc(/C(Cl)=C(\C=O)c2ccc(OC)c(OC)c2)cc1OCCC
3. CN1CCc2c(sc3nc(Nc4ccccc4)n(N)c(=O)c23)C1

1. 16.5 µM
2. > 100 µM
3. > 100 µM

---

Could you please report measured TGI for the items listed next?
System: 786-0 renal
Assay: NCI tumour cell line growth inhibition, 48 h
One number for each entry, in µM.

> print(dat)
                                   compound  quantity  reading
1  CCCCCCCCCCCCCCCCOC(=O)C(C(=O)OCCCCCCCCCCCCCCCC)[N+](C)(C)CCOC(C)=O       TGI     32.7
2  Cc1ccc(/C=C(\C#N)n2nnc3cc(Cl)c(Cl)cc32)cc1       TGI        6
3  NC(=O)c1ccccc1NC(=O)C(=O)C(C(=O)c1ccc2ccccc2c1)C1OC(=O)c2ccccc21 (stereo not given)       TGI     19.9

The compound listed as Cc1cccc2c1Oc1cc(Cl)ccc1C2NC(=O)CCN1CCCCC1 (stereo not given) has a reported TGI of 28

---

Could you please report measured TGI for the items listed next?
Test system: HOP-62 NSCLC
Assay: NCI tumour cell line growth inhibition, 48 h
One number for each entry, in µM.

> print(dat)
                                   molecule  units.label  reading
1  COc1ccc(C2CCc3nc4nc(N)nc(N)c4cc3C2)cc1 (stereo not given)           µM     33.9

For every record below, what is its TGI?
1. COc1cc2cc(c1Cl)N(C)C(=O)CC(OC(=O)C(C)C)C1(C)OC1C(C)C1CC(O)(NC(=O)O1)C(OC)/C=C/C=C(C)C2 (stereo not given)
2. Cc1ccc(-n2c3c(c4c(CN5CCCCC5)c(O)ccc42)CCc2ccccc2C3=O)cc1
3. Cc1csc2c(P(=O)(OC(C)C)OC(C)C)c(-c3ccccc3)cn12

[62, 80.7, 33.1]

---

Tested on: SK-MEL-28 melanoma
Test: NCI tumour cell line growth inhibition, 48 h
quantity: TGI (µM)
One number for each entry, in µM.

For every record below, what is its TGI?
1. O=C(N=Nc1ccc([N+](=O)[O-])cc1)NNc1ccc([N+](=O)[O-])cc1
2. C/C(Cl)=N\OC(=O)Nc1ccc([N+](=O)[O-])cc1

1. 36.2
2. 31.5

---

Entries below carry reported GI50 on HS 578T breast.

Answered examples (5):
> print(dat)
                                   compound  quantity      reading
1  COc1cc2c(cc1OCCCCNC(=O)c1cc3ccccc3[nH]1)N=CC1CCCN1C2=O (configuration not stated)      GI50     16100 nM
2                CCCNc1nc(N(C)O)nc(N(C)O)n1      GI50      6510 nM
3    Nc1nc(N)c2cc(CNc3ccc(Cl)c(Cl)c3)ccc2n1      GI50      1340 nM
4  COc1cccc(Nc2nc(NNC(=O)Cc3ccccc3)nc(NNC(=O)c3ccncc3)n2)c1      GI50  > 100000 nM
5  COc1ccc2c(c1)C(=O)c1c-2n(CCCN=[N+]=[N-])c(=O)c2ccccc12      GI50     62400 nM

For every record below, what is its GI50?
1. O=C1NC(=NCC(CO)c2ccccc2)S/C1=C\c1ccc2ncccc2c1 (configuration not stated)
2. O=C1Cc2cc(CCn3ccnc3)c(Cl)cc2N1
3. O=S(=O)(NCCNc1nccc(-c2c(-c3cccc(O)c3)nc3sccn23)n1)c1ccc(F)cc1

["14700 nM", "873 nM", "2930 nM"]
